- Run description: BSK_3C_uPAR: BioMAP Diversity Plus: 3C Assay for Urokinase-type plasminogen activator receptor (uPAR) Biomarker Activity (AID 2282998)
- Test parameters: BioMAP 3C HUVEC, uPAR biomarker ELISA; actives raise or lower the signal
Calls of active or inactive are those of the source. Rule for the calls: active = hit-call score of the fitted dose curve at least 0.9, where 1 is the maximum; inactive = score below 0.9.
Outcome field: choose from active, inactive

[ask] Identify the outcome logged in this assay for the compound shown: `CCCCN(CCO)CCO`
[reply] inactive

[ask] Identify the outcome logged in this assay for the compound shown: `CC(C)(C)c1cccc(O)c1`
[reply] active

[ask] Identify the outcome logged in this assay for the compound shown: `O=C1OC2(c3ccc(O)cc3Oc3cc(O)ccc32)c2ccccc21`
[reply] inactive

[ask] Identify the outcome logged in this assay for the compound shown: `CCOC(=O)CCCCCCCCC(=O)OCC`
[reply] inactive

[ask] Identify the outcome logged in this assay for the compound shown: `CCCCCCCCCC(=O)OCC`
[reply] active

###

- Test target: X-box-binding protein 1 (Homo sapiens) (UniProt P17861)
- Sequence (P17861 whole entry, looked up): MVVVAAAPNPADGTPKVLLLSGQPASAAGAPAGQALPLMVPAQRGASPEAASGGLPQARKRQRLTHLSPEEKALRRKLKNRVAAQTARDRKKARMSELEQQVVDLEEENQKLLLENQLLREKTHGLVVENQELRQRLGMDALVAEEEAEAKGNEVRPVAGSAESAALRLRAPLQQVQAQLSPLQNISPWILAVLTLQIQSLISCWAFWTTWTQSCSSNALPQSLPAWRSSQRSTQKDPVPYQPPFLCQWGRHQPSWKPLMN
- Run description: ATG_Xbp1_CIS: Attagene CIS-FACTORIAL HepG2 Assay for human X-box Binding Protein 1 (XBP1) (AID 2282972)
- Test parameters: HepG2 XBP1 cis-element reporter, Attagene multiplex; actives raise or lower the signal
Calls of active or inactive are those of the source. The calls were made as follows: active = hit-call score of the fitted dose curve at least 0.9, where 1 is the maximum; inactive = score below 0.9.
Outcome field: choose from active, inactive

[ask] Identify the outcome logged in this assay for the compound shown: `Nc1ccc(O)c(N)c1`
[reply] inactive

[ask] Identify the outcome logged in this assay for the compound shown: `C[C@]12CC[C@@H]3c4ccc(O)cc4CC[C@H]3[C@@H]1CC[C@@H]2O`
[reply] inactive

[ask] Identify the outcome logged in this assay for the compound shown: COC(=O)C(C)Oc1ccc(Oc2ncc(C(F)(F)F)cc2Cl)cc1 (stereo not given)
[reply] inactive

[ask] Identify the outcome logged in this assay for the compound shown: `CCCCCCCCCCO[C@@H]1O[C@H](CO)[C@@H](O)[C@H](O)[C@H]1O`
[reply] inactive

[ask] Identify the outcome logged in this assay for the compound shown: `CCCCCCCCCCCCCCCCCC(=O)OCCCCCCCCCCCCCC(C)C`
[reply] inactive

[ask] Identify the outcome logged in this assay for the compound shown: `CCO[Si](CCC#N)(OCC)OCC`
[reply] inactive

[ask] Identify the outcome logged in this assay for the compound shown: `CC(=O)OC/C=C(C)/C=C/C=C(C)/C=C/C1=C(C)CCCC1(C)C`
[reply] inactive

[ask] Identify the outcome logged in this assay for the compound shown: `CN(C)CCC=C1c2ccccc2CCc2ccccc21`
[reply] active

[ask] Identify the outcome logged in this assay for the compound shown: `O=C(O)c1ccccc1O`
[reply] inactive

[ask] Identify the outcome logged in this assay for the compound shown: `CC(C)Cc1ccccc1`
[reply] inactive

[ask] Identify the outcome logged in this assay for the compound shown: C=CC(C)CCCC(C)(C)O (stereo not given)
[reply] inactive

[ask] Identify the outcome logged in this assay for the compound shown: `O=C1OCc2ccccc21`
[reply] inactive

[ask] Identify the outcome logged in this assay for the compound shown: C=C(C)C(=O)OCCC(C)OC(=O)C(=C)C (stereo not given)
[reply] inactive

[ask] Identify the outcome logged in this assay for the compound shown: `CC(CO)(CO)[N+](=O)[O-]`
[reply] inactive

[ask] Identify the outcome logged in this assay for the compound shown: `C[N+](C)(C)CCO`
[reply] inactive

###

- Run description: ATG_PPRE_CIS: Attagene CIS-FACTORIAL HepG2 Assay for human Peroxisome Proliferator-activated Response Element (PPRE) (AID 2282958)
- Test parameters: HepG2 PPRE cis-element reporter, Attagene transcription factor profiling; actives raise or lower the signal
Activity calls are given as the source filed them. The calls were made as follows: active = hit-call score of the fitted dose curve at least 0.9, where 1 is the maximum; inactive = score below 0.9.
Outcome field: choose from active, inactive

[ask] Identify the outcome logged in this assay for the molecule shown: `O=S1(=O)CC(Cl)(Cl)C(Cl)(Cl)C1`
[reply] inactive

[ask] Identify the outcome logged in this assay for the molecule shown: CCOCC(C)O (stereo not given)
[reply] inactive

[ask] Identify the outcome logged in this assay for the molecule shown: `CC(C)N(c1ccccc1)C(C)C`
[reply] inactive

[ask] Identify the outcome logged in this assay for the molecule shown: CC1=CC(O)CC(C)(C)C1 (stereo not given)
[reply] inactive

[ask] Identify the outcome logged in this assay for the molecule shown: `CCCCCCCCCC(=O)OCC`
[reply] inactive

[ask] Identify the outcome logged in this assay for the molecule shown: `CNC(=C[N+](=O)[O-])NCCSCc1ccc(CN(C)C)o1`
[reply] inactive

[ask] Identify the outcome logged in this assay for the molecule shown: `CC(=N[Si](C)(C)C)O[Si](C)(C)C`
[reply] inactive

[ask] Identify the outcome logged in this assay for the molecule shown: `CC(=O)c1cccnc1`
[reply] inactive

[ask] Identify the outcome logged in this assay for the molecule shown: `Cc1cc(O)c2c(c1)C(=O)c1cc(O)cc(O)c1C2=O`
[reply] active

[ask] Identify the outcome logged in this assay for the molecule shown: `CCCOC(=O)CC`
[reply] inactive

[ask] Identify the outcome logged in this assay for the molecule shown: `CCCO[Si](OCCC)(OCCC)OCCC`
[reply] active

[ask] Identify the outcome logged in this assay for the molecule shown: `CC(C)=CC(=O)O`
[reply] inactive

[ask] Identify the outcome logged in this assay for the molecule shown: `CC(=O)c1ccc2ccccc2c1`
[reply] inactive

[ask] Identify the outcome logged in this assay for the molecule shown: `COc1ccccc1O`
[reply] inactive

[ask] Identify the outcome logged in this assay for the molecule shown: `[O-]/[N+](=N\O)c1ccccc1`
[reply] inactive

[ask] Identify the outcome logged in this assay for the molecule shown: CCCCCC1CCC(=O)O1 (stereo not given)
[reply] inactive

[ask] Identify the outcome logged in this assay for the molecule shown: `CC=CC(=O)C1=C(C)C=CCC1(C)C`
[reply] inactive

[ask] Identify the outcome logged in this assay for the molecule shown: `CC(=O)CC(C)(C)C1CCCCC1`
[reply] inactive

[ask] Identify the outcome logged in this assay for the molecule shown: CCCCCCC(C)O (stereo not given)
[reply] inactive

[ask] Identify the outcome logged in this assay for the molecule shown: `CCCCCCCCOS(=O)(=O)O`
[reply] active

[ask] Identify the outcome logged in this assay for the molecule shown: `NCCN1CCNCC1`
[reply] inactive

[ask] Identify the outcome logged in this assay for the molecule shown: `Cc1cc(O)c(C)c(C)c1O`
[reply] inactive

[ask] Identify the outcome logged in this assay for the molecule shown: `C[N+](C)(C)CCO`
[reply] inactive

[ask] Identify the outcome logged in this assay for the molecule shown: `C=CCCCCCCCCC(=O)OCC`
[reply] inactive

[ask] Identify the outcome logged in this assay for the molecule shown: `O=c1cc(-c2ccc(O)cc2)oc2cc(O)cc(O)c12`
[reply] active

[ask] Identify the outcome logged in this assay for the molecule shown: `CC/C=C\C#N`
[reply] inactive

[ask] Identify the outcome logged in this assay for the molecule shown: `CCCCN(CCCC)CCCCCCN(CCCC)CCCC`
[reply] inactive

[ask] Identify the outcome logged in this assay for the molecule shown: `C[C@H](CCC(=O)O)[C@H]1CC[C@H]2[C@@H]3CC[C@@H]4C[C@H](O)CC[C@]4(C)[C@H]3CC[C@]12C`
[reply] inactive

[ask] Identify the outcome logged in this assay for the molecule shown: `CCC(C)(C)c1cc(O)c(C(C)(C)CC)cc1O`
[reply] inactive

[ask] Identify the outcome logged in this assay for the molecule shown: CC/C=C\CCOC(C)OCC (stereo not given)
[reply] inactive

[ask] Identify the outcome logged in this assay for the molecule shown: `C/C=C(\C)C(=O)OC/C=C(\C)CCC=C(C)C`
[reply] active

[ask] Identify the outcome logged in this assay for the molecule shown: `OC[C@H]1O[C@@H](O[C@H]2[C@H](O)[C@@H](O)[C@H](O)O[C@@H]2CO)[C@H](O)[C@@H](O)[C@H]1O`
[reply] inactive

[ask] Identify the outcome logged in this assay for the molecule shown: `CCC=C(C)C=O`
[reply] inactive

[ask] Identify the outcome logged in this assay for the molecule shown: N#CCCCC(C#N)CCC#N (stereo not given)
[reply] inactive

[ask] Identify the outcome logged in this assay for the molecule shown: `CCCCC/C=C\C=C\C(=O)OCC`
[reply] active

[ask] Identify the outcome logged in this assay for the molecule shown: `CCOC(=O)C(=O)OCC`
[reply] inactive

[ask] Identify the outcome logged in this assay for the molecule shown: `ClCCOCCOCCCl`
[reply] inactive

[ask] Identify the outcome logged in this assay for the molecule shown: `NC(=O)c1cnccn1`
[reply] inactive

[ask] Identify the outcome logged in this assay for the molecule shown: CC(=O)OC(C)(C)C1CC=C(C)CC1 (stereo not given)
[reply] inactive

[ask] Identify the outcome logged in this assay for the molecule shown: CCCCCCCC1CCCC1=O (stereo not given)
[reply] inactive

[ask] Identify the outcome logged in this assay for the molecule shown: `CC/C(=C(\c1ccccc1)c1ccc(OCCN(C)C)cc1)c1ccccc1`
[reply] inactive

[ask] Identify the outcome logged in this assay for the molecule shown: `C1COCO1`
[reply] inactive

[ask] Identify the outcome logged in this assay for the molecule shown: `C=CC(=O)OCC(CO)(COC(=O)C=C)COC(=O)C=C`
[reply] active

[ask] Identify the outcome logged in this assay for the molecule shown: `CCOC(=O)CC(C)C`
[reply] inactive

[ask] Identify the outcome logged in this assay for the molecule shown: `CC1(C)CC(=O)CC(C)(C)N1`
[reply] inactive

[ask] Identify the outcome logged in this assay for the molecule shown: `CCCCCCCCCCCCOCCOS(=O)(=O)O`
[reply] inactive

[ask] Identify the outcome logged in this assay for the molecule shown: `C=CCOC(=O)/C=C\C(=O)OCC=C`
[reply] inactive

[ask] Identify the outcome logged in this assay for the molecule shown: `O=C(O)CS`
[reply] inactive

[ask] Identify the outcome logged in this assay for the molecule shown: COC(=O)C(C)Oc1ccc(Oc2ncc(C(F)(F)F)cc2Cl)cc1 (stereo not given)
[reply] active

[ask] Identify the outcome logged in this assay for the molecule shown: `CCn1cc(C(=O)O)c(=O)c2ccc(C)nc21`
[reply] inactive
